Measured melting point of individual entries
Structures can show the parent of a compound that is named as a salt.

# annotated cases, reported melting point shown
>  <compound>
O=C(CCCN1CCC(NC(=O)c2ccccc2)CC1)c1ccc(Cl)cc1 (as salt: HCl)

>  <readout value>
243 to 244 °C

$$$$
>  <compound>
COCC1=C(C(=O)OC)C(c2ccc(F)c(F)c2)N(C(=O)NCCCN2CCC(O)(c3ncccc3C)CC2)C(=O)N1 (single isomer, unassigned; (+))

>  <readout value>
132 to 135 °C

$$$$
>  <compound>
COC(=O)C1=C(C)NC(=O)N(C(=O)NCCCN2CCC3(CCc4ccccc43)CC2)C1c1ccc(F)c(F)c1 (stereo not drawn)

>  <readout value>
150 to 153 °C

$$$$
>  <compound>
COCC1=C(C(=O)OC)C(c2ccc(F)c(F)c2)N(C(=O)NCCCN2CCC(c3cccc4ccccc34)CC2)C(=O)N1 (single isomer, unassigned; (+))

>  <readout value>
168 to 172 °C

$$$$
>  <compound>
COC(=O)C1=C(C)NC(=O)N(C(=O)NCCCN2CCC3(CCc4ccccc43)CC2)C1c1ccc2nonc2c1 (racemic) (as salt: hydrochloride)

>  <readout value>
155 to 157 °C

$$$$
>  <compound>
COCC1=C(C(=O)OC)C(c2ccc(F)c(F)c2)N(C(=O)NCCCN2CCC(c3cccc(OC)c3)CC2)C(=O)N1 (single isomer, unassigned; (+))

>  <readout value>
80 to 84 °C

$$$$
>  <compound>
COC(=O)C1=C(C)NC(=O)N(C(=O)NCCCN2CCN(c3ccccc3C)CC2)C1c1ccc(F)c(F)c1 (stereo not drawn) (as salt: hydrochloride)

>  <readout value>
66 to 71 °C

$$$$
>  <compound>
COC(=O)C1=C(C)NC(=O)N(C(=O)NCCCN2CCC3(CC2)OCc2ccccc23)C1c1ccc2nonc2c1 (single isomer, unassigned) (as salt: hydrochloride)

>  <readout value>
180 to 182 °C

$$$$

# lookup: melting point of COCC1=C(C(=O)OC)C(c2ccc(F)c(F)c2)N(C(=O)NCCCN2CCC(OC(C)=O)(c3ccccc3)CC2)C(=O)N1 (stereo not drawn) (as salt: hydrochloride) 82 to 84 °C

Please look up its melting point: COC(=O)C1=C(C)NC(=O)N(C(=O)NCCCN2CCC3(CC2)OCc2ccccc23)C1c1ccc(F)c(F)c1 (stereo not drawn) (as salt: hydrochloride) 178 to 182 °C

Could you share which melting point value was measured for COC(=O)C1=C(C)NC(=O)N(C(=O)NCCCN2CCN(c3ccccc3[N+](=O)[O-])C[C@@H]2C)C1c1ccc(F)c(F)c1 (single isomer, unassigned; (+)) (as salt: HCl) ? 150 to 153 °C

Given the compound O=C(NC1CCN(CCC2CCc3ccccc3C2=O)CC1)c1ccccc1 (stereo not drawn) , what is its reported melting point? 158 to 159 °C
